# target: cJun/TRE DNA interaction (Homo sapiens, UniProt P05412)
# Construct: The same 60 amino acid cJun construct, encompassing the entire bZIP domain, was used for all experiments
# Sequence (P05412 252-315 limits assumed): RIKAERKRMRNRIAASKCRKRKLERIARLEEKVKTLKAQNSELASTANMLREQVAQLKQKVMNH
# protocol: CD antagonism of the cJun/TRE DNA interaction
# Format: biochemical
# cond: peptide added to pre-incubated cJun (20 μM) and TRE DNA (5 μM); shift of DNA CD peak at ~281 nm; 30 min equilibration; pH 7.4; Hill fit; triplicate experiments, ± one SD; read-out: IC50 CD (antagonism of cJun/TRE DNA binding)
recorded_endpoint: pIC50
Remember, pIC50 is on a log scale: it is -log10 of the molar concentration.

Measured pIC50, Ac-EAEELVVEEDVLEEEIEQLEEKNKALKDEIEDLY-NH2 [HW14] : 2.81
